molecular target: serotonin 5-HT2C receptor (VSV type isoform, stably expressed in CHO cells) (Homo sapiens, UniProt P28335, I156V/I160V/N158S); assay: cell-based; conditions: read-out: ratio (%) relative to maximum response by 5-HT (10 μM)
Sequence (P28335 33-458 I156V/N158S/I160V limits assumed): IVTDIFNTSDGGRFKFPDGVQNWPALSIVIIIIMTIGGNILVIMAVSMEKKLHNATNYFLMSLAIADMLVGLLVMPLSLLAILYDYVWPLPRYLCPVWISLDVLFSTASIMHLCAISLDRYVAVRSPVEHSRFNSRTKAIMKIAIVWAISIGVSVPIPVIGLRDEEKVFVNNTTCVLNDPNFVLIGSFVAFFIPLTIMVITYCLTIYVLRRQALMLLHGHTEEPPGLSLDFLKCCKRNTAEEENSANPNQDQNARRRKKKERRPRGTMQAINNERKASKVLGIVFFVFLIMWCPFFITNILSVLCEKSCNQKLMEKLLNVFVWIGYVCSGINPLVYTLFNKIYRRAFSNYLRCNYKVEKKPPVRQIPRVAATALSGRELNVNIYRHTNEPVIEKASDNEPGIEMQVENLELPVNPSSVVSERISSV
Structures can show the parent of a compound that is named as a salt.
Measured attribute: Emax (%)
The response must be a number in % with no trailing unit.

CN1CC2CNCCc3c(Br)ccc1c32 (stereo not shown) [Example 13, hydrochloride]: 81
c1cc2c3c(coc3c1)CNCC2 [Example 31, hydrochloride]: 85
c1cc2c3c(csc3c1)CNCC2 [Example 41, hydrochloride]: 91
CC(=O)N1CC2CNCCc3c(Cl)cc(Cl)c1c32 (stereo not shown) [Example 23]: 100
CC(=O)N1C[C@@H]2CNCCc3ccc(Cl)c1c32 [Example 24, hydrochloride]: 96
O=C(c1ccccc1)N1CC2CNCCc3ccc(Cl)c1c32 (stereo not shown) [Example 37, hydrochloride]: 95

The recorded Emax for entry Cc1ccc2c3c1N(C)C[C@H]3CNCC2 [Example 12] equals 102

The recorded Emax for entry Clc1ccc2c3c1OCC3CNCC2 (stereo not shown) [Example 33, hydrochloride] equals 94

The recorded Emax for entry CC(C)C(=O)N1CC2CNCCc3cccc1c32 (stereo not shown) [Example 34, hydrochloride] equals 77
